Values were extracted from patent US11773129B2.

Below: a set of entries, each annotated with reported IC50.
System Tested: NEU4 (Homo sapiens, UniProt Q8WWR8)
Sequence (Q8WWR8 1-484): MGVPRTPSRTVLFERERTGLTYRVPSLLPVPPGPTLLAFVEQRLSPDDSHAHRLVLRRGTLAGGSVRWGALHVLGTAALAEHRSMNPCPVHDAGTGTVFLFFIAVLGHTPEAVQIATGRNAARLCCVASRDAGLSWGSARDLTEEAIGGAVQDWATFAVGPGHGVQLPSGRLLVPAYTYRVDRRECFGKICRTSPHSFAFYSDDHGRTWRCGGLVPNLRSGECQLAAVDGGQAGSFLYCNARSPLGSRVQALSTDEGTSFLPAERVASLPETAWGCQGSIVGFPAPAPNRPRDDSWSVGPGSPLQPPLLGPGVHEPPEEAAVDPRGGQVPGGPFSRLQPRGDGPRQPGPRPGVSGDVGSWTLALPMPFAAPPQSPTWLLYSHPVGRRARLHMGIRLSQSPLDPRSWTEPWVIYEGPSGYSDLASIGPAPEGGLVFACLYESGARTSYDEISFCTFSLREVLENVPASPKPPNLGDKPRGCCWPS
Assay Overview: IC50 inhibition assay using 4MU-NANA as the substrate, NEU4
Assay type: biochemical
Parameters: GST; made in house; host or cells: E. coli
Experimental Parameters: 4MU-NANA as the substrate; read-out: IC50 NEU4
State just the number; it will be interpreted in µM.

Use these answered entries as a reference point.
# Compound, Unit Name, IC50
data = [
    ("CCCCC(=O)NC[C@@H](O)[C@@H](O)[C@@H]1OC(C(=O)O)=C[C@H](O)[C@H]1NC(=O)CC [compound 65]", "µM", 190),
    ("CC(=O)N[C@@H]1C(O)C=C(C(=O)O)OC1C(O)C(O)CNC(=O)C(C)C (stereo partly drawn) [compound 53]", "µM", 230),
    ("CCCCC(=O)NCC(O)C(O)C1OC(C(=O)O)=CC(O)[C@H]1NC(C)=O (stereo partly drawn) [compound 50, C9-BA-DANA]", "µM", 220),
    ("O=C(Cn1cc(-c2ccc(F)cc2)nn1)N[C@@H]1C(O)C=C(C(=O)O)OC1C(O)C(O)CO (stereo partly drawn) [compound 45]", "µM", 100),
]

Query block: Would you kindly share the measured IC50 for Nc1ccc(-c2cn(CC(=O)N[C@@H]3C(O)C=C(C(=O)O)OC3C(O)C(O)CO)nn2)cc1 (stereo partly drawn) [compound 46] ?
Result block: 130

Query block: Next compound up: CCCCCC(=O)N[C@H]1[C@H]([C@H](O)[C@H](O)CNC(C)=O)OC(C(=O)O)=C[C@@H]1O [compound 68]
Result block: 170

Query block: Next compound up: CC(=O)Nc1ccc(C(=O)NC[C@@H](O)[C@@H](O)[C@@H]2OC(C(=O)O)=C[C@H](O)[C@H]2NC(C)=O)cc1 [compound 58]
Result block: 24

Query block: Next compound up: CC(=O)N[C@@H]1C(O)C=C(C(=O)O)OC1C(O)C(O)CNC(=O)CC(C)C (stereo partly drawn) [compound 54]
Result block: 130

Query block: Next compound up: CC(=O)N[C@H]1[C@H]([C@H](O)[C@H](O)CNC(=O)c2cccc(N)c2)OC(C(=O)O)=C[C@@H]1O [compound 61]
Result block: 150

Query block: Next compound up: CC(C)CCC(=O)N[C@H]1[C@H]([C@H](O)[C@H](O)CO)OC(C(=O)O)=C[C@@H]1O [compound 36]
Result block: 370

Query block: Next compound up: CCCCCc1cn(C[C@@H](O)[C@@H](O)[C@@H]2OC(C(=O)O)=C[C@H](O)[C@H]2NC(C)=O)nn1 [compound 63]
Result block: 2.6

====

System Tested: NEU3 (Homo sapiens)
Assay Overview: IC50 inhibition assay using 4MU-NANA as the substrate, NEU3
Assay type: biochemical
Set-up: MBP (N); made in house; host or cells: E. coli
Experimental Parameters: target isoenzyme NEU3; 4MU-NANA substrate; read-out: IC50 [μM] NEU3
Quantity: IC50 (µM)
State just the number; it will be interpreted in µM.

Query block: Hello, I am looking for reported IC50 with NEU3 (Homo sapiens) for CC(=O)N[C@@H]1C(NC(=N)N)C=C(C(=O)O)OC1C(O)C(O)Cn1cc(-c2ccc(-c3ccccc3)cc2)nn1 (some centres unmarked) . Could you help?
Result block: 0.6

Query block: Next molecule up: CC(=O)N[C@@H]1C(O)C=C(C(=O)O)OC1C(O)C(O)Cn1cc(-c2ccc(-c3ccccc3)cc2)nn1 (some centres unmarked)
Result block: 0.7

====

System Tested: NEU3 (Homo sapiens, UniProt Q9UQ49)
Sequence (Q9UQ49 whole entry): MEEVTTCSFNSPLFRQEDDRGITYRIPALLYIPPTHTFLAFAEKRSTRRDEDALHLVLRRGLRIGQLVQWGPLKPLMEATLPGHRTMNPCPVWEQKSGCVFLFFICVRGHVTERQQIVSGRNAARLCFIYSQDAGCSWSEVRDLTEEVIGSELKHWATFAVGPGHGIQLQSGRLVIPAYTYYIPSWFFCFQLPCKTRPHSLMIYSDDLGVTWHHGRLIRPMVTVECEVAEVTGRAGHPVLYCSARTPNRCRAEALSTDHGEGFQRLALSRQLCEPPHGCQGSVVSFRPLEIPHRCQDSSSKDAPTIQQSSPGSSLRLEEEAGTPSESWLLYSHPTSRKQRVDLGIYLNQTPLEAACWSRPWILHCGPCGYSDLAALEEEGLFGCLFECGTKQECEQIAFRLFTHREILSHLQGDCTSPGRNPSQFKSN
Assay Overview: IC50 inhibition assay using 4MU-NANA as the substrate, NEU3
Type: biochemical
Parameters: MBP (N); made in house; host or cells: E. coli
Experimental Parameters: 4MU-NANA as the substrate; read-out: IC50 NEU3
Quantity: pIC50
Scale for pIC50: -log10 of concentration given in mol/L; no unit attached.

Use these answered entries as a reference point.
# Compound, Quantity, Assay Value
records = [
    ("CC(=O)N[C@H]1[C@H]([C@H](O)[C@H](O)Cn2cc(-c3ccc(N)cc3)nn2)OC(C(=O)O)=C[C@@H]1O [7c]", "pIC50", 5.06),
    ("CCCC(=O)NCC(O)C(O)C1OC(C(=O)O)=CC(O)[C@H]1NC(C)=O (some centres unmarked) [compound 49]", "pIC50", 3.60),
    ("CC(C)CCC(=O)N[C@H]1[C@H]([C@H](O)[C@H](O)CO)OC(C(=O)O)=C[C@@H]1O [compound 36]", "pIC50", 3.82),
    ("CC(=O)N[C@@H]1C(NC(=N)N)C=C(C(=O)O)OC1C(O)C(O)Cn1cc(-c2ccc(C(=O)O)cc2)nn1 (some centres unmarked) [8a]", "pIC50", 6.21),
    ("CC(=O)N[C@H]1[C@H]([C@H](O)[C@H](O)Cn2cc(-c3ccc(F)cc3)nn2)OC(C(=O)O)=C[C@@H]1O [7f]", "pIC50", 4.77),
]

Query block: Hello, I am looking for reported pIC50 with NEU3 (Homo sapiens, UniProt Q9UQ49) for CC(=O)Nc1ccc(C(=O)NC[C@@H](O)[C@@H](O)[C@@H]2OC(C(=O)O)=C[C@H](O)[C@H]2NC(C)=O)cc1 [compound 58] . Could you help?
Result block: 5.14

Query block: Next compound up: O=C(O)C1=C[C@H](O)[C@@H](NC(=O)C2CCC2)[C@H]([C@H](O)[C@H](O)CO)O1 [compound 38]
Result block: 4.00

Query block: Next compound up: O=C(Cn1cc(-c2ccc(F)cc2)nn1)N[C@@H]1C(O)C=C(C(=O)O)OC1C(O)C(O)CO (some centres unmarked) [compound 45]
Result block: 3.62

Query block: Next compound up: CCC(=O)N[C@H]1[C@H]([C@H](O)[C@H](O)CO)OC(C(=O)O)=C[C@@H]1O [compound 29]
Result block: 4.22

====

Below: a set of entries, each annotated with reported IC50.
System Tested: NEU3 (Homo sapiens)
Assay Overview: IC50 inhibition assay using 4MU-NANA as the substrate, NEU3
Assay type: biochemical
Design: MBP (N); made in house; host or cells: E. coli
Experimental Parameters: 4MU-NANA as the substrate; read-out: IC50 NEU3

Use these answered entries as a reference point.
# Compound, IC50
data = [
    ("CC(=O)N[C@@H]1C(O)C=C(C(=O)O)OC1C(O)C(O)Cn1cc(CNC(=O)c2ccccc2)nn1 (stereo partly shown)", "15 µM"),
    ("[N-]=[N+]=NCC(=O)N[C@@H]1C(O)C=C(C(=O)O)OC1C(O)C(O)CO (stereo partly shown)", "4.4 µM"),
    ("CCCCC(=O)NCC(O)C(O)C1OC(C(=O)O)=CC(O)[C@H]1NC(=O)CCCC (stereo partly shown)", "> 500 µM"),
    ("CC(=O)N[C@H]1[C@H]([C@H](O)[C@H](O)Cn2cc(-c3ccc(C(=O)O)cc3)nn2)OC(C(=O)O)=C[C@@H]1NC(=O)NCCC(=O)O", "> 500 µM"),
    ("CC(C)C(=O)N[C@H]1[C@H]([C@H](O)[C@H](O)CO)OC(C(=O)O)=C[C@@H]1O", "> 500 µM"),
]

Query block: Would you kindly share the measured IC50 for CCCC(=O)N[C@@H]1C(O)C=C(C(=O)O)OC1C(O)C(O)CO (stereo partly shown) ?
Result block: 15 µM

Query block: Next compound up: CC(=O)N[C@@H]1C(O)C=C(C(=O)O)OC1C(O)C(O)Cn1cc(-c2ccc(NC(=O)c3ccccc3)cc2)nn1 (stereo partly shown)
Result block: 2.9 µM

====

System Tested: NEU3 (Homo sapiens)
Assay Overview: Ki determination (4MU-NANA), NEU3
Experimental Parameters: Ki NEU3, 4MU-NANA
Quantity: Ki (nM)
State just the number; it will be interpreted in nM.

# Compound, System Tested, Assay Value
data = [
    ("CC(=O)N[C@@H]1C(NC(=N)N)C=C(C(=O)O)OC1C(O)C(O)Cn1cc(-c2ccc(-c3ccccc3)cc2)nn1 (some centres unmarked) [8b]", "NEU3 (Homo sapiens)", 280),
]

Query block: Would you kindly share the measured Ki for CC(=O)N[C@@H]1C(O)C=C(C(=O)O)OC1C(O)C(O)Cn1cc(-c2ccc(-c3ccccc3)cc2)nn1 (some centres unmarked) [7i] ?
Result block: 280
